B1: KLHL14 (parent)
chain: YVIGGRNETGYLSSVECYNLETNE

Variants of: B1
method.notes: protein stability index of a GFP-peptide fusion (GPS, HEK-293T) (PSI 1-6); higher = more stable;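 also: lentivirally expressed fusions sorted by FACS into six bins by GFP to DsRed ratio, PSI derived from sequencing read proportions per bin multiplied by bin number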
conditions.used: c terminus: a fixed tail appended
Below is a list of entries, each paired with its recorded protein stability index value.
Give a plain numeric answer without units written out.

Ask: Could you tell me which protein stability index is on file for G10V ?
Reply: 1.98

Ask: Next entry: N19Q
Reply: 2

Ask: V15G ?
Reply: 2.05

Ask: Let us now turn to N7S
Reply: 2.63

New cases:
Ask: Please give the measured protein stability index for this variant: S14W
Reply: 2.88

Ask: # iterate: G5V
Reply: 1.49

Where these numbers come from: the supplement of paper PMC10567573
